Examples of molecules with documented DC50 follow.
tgt: KAT2A (Homo sapiens, UniProt Q92830)
Sequence (Q92830 whole entry): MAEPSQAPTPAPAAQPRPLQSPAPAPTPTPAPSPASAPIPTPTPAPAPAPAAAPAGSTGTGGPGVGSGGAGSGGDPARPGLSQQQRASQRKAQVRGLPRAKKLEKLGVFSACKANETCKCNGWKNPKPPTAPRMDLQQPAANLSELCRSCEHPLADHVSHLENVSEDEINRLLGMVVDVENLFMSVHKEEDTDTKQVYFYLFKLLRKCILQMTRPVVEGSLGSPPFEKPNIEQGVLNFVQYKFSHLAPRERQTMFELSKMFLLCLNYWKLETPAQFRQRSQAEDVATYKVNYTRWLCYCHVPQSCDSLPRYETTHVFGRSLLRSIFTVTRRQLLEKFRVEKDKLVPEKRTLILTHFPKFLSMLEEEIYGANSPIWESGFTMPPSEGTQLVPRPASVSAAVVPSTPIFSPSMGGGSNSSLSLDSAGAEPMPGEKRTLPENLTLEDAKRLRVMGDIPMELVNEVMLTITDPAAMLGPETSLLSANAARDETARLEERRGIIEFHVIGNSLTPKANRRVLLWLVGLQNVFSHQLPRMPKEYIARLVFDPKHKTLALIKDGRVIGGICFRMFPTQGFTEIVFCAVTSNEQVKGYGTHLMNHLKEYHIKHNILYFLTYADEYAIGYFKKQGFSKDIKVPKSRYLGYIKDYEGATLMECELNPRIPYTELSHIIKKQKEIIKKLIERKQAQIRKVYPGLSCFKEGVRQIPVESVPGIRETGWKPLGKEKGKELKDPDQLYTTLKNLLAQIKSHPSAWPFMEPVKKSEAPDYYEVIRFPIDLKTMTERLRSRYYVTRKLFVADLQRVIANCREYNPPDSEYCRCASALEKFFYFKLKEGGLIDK
test summary: KAT2A degradation, Western Blot (Jess), MOLM-13 cells
Assay type: cell-based
Parameters: degrader, Western blot
condition parameters: MOLM-13 cells, KAT2A, 24 h, Western Blot, vs DMSO; read-out: KAT2A MOLM-13 DC50

molecule	measurement
CN1C[C@H](Nc2cnn(C)c(=O)c2Cl)C[C@H](c2ccc(C(=O)N3CC4(CC(Oc5ccc(C6CCC(=O)NC6=O)c(F)c5)C4)C3)cc2)C1 (stereo partly drawn)	1 to 30 nM
CN1C[C@H](Nc2cnn(C)c(=O)c2Br)C[C@H](c2ccc(C(=O)N3CCC(c4ccc(CN5CCC(=O)NC5=O)cc4)CC3)cc2)C1	> 30 nM
CN1C[C@H](Nc2cnn(C)c(=O)c2Br)C[C@H](c2ccc(C(=O)N3CCC(c4cccc5c4CN(C4CCC(=O)NC4=O)C5=O)CC3)cc2)C1 (stereo partly drawn)	1 to 30 nM
CN1C[C@H](Nc2cnn(C)c(=O)c2Br)C[C@H](c2ccc(CN3CCC4(CC3)CCN(c3ccc(C5CCC(=O)NC5=O)cc3F)CC4)cc2)C1 (stereo partly drawn)	< 1 nM
Cc1c(N[C@@H]2C[C@H](c3ccc(C(=O)N4CCC5(CC4)CCN(c4ccc(C6CCC(=O)NC6=O)cc4)CC5)cc3)CN(C)C2)cnn(C)c1=O (stereo partly drawn)	< 1 nM

Challenge: Check the records and state DC50 for CN1C[C@H](Nc2cnn(C)c(=O)c2Br)C[C@H](c2ccc(C(=O)N3CCC4(CCN(CC5CCN(c6ccc7c(c6)C(=O)N(C6CCC(=O)NC6=O)C7=O)CC5)C4)C3)cc2)C1 (stereo partly drawn)
Response given: < 1 nM

Challenge: Check the records and state DC50 for CN1C[C@H](Nc2cnn(C)c(=O)c2Br)C[C@H](c2ccc(CN3CCC4(CC3)CCN(c3cccc(C5CCC(=O)NC5=O)c3)CC4)cc2)C1 (stereo partly drawn)
Response given: < 1 nM

Challenge: Check the records and state DC50 for CN1C[C@H](Nc2cnn(C)c(=O)c2Br)C[C@H](c2ccc(C(=O)N3CCC(CN4CCN(c5ccc6c(c5)CN(C5CCC(=O)NC5=O)C6=O)CC4)CC3)cc2)C1 (stereo partly drawn)
Response given: < 1 nM

Challenge: Check the records and state DC50 for CN1C[C@H](Nc2cnn(C)c(=O)c2Br)C[C@H](c2ccc(C(=O)N3CC(Oc4ccc5c(c4)CN(C4CCC(=O)NC4=O)C5=O)C3)cc2)C1 (stereo partly drawn)
Response given: < 1 nM
